- protocol-text: MRT(0 to t) in Sprague-Dawley rat at 2 mg/kg, iv by LC-MS/MS analysis
- Assay type: ADME, organism-based
- conditions-used: in vivo
measured-quantity: MRT last (min)
Give the number; min is assumed, so skip it.

I have this molecule here, "C=CCNC(=S)Nc1cc(C(=O)Nc2ccc(F)c(C)c2)c(C)cc1F" , and I need its recorded MRT last. 49.2

---

- protocol-text: AUC(0 to t) in Sprague-Dawley rat at 2 mg/kg, iv by LC-MS/MS analysis
- Format: ADME, organism-based
- Design: dose 2 mg/kg, route iv
- conditions-used: in vivo
measured-quantity: AUC(0-t) (ng·h/mL)
Field: numeric (ng·h/mL). Do not append units.

I have this compound here, "C=CCNC(=S)Nc1cc(C(=O)Nc2ccc(F)c(C)c2)c(C)cc1F" , and I need its recorded AUC(0-t). 3260
